Listed compounds paired with reported normalized growth
experiment: chemical genetic growth profiling, strain panel (AID 1159580);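 note: tested at 20 µM; growth read once vehicle control cultures reached saturation at 30 °C; 1 = growth at the plate median or of vehicle wells; lower values mean less growth of the strain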; conditions: S. cerevisiae deletion strains, growth OD, locus YML120C, strain ndi1, hits give low values
Among all 5,500 compounds or so, about 2,000 (36%) were called active. Another 18% or so got no clear call; they are omitted. The list shows a part of the results.
Response field accepts a number only; no unit should be typed.

Would you please look over these solved cases?
CC/C(=C(/CC)c1ccc(O)cc1)c1ccc(O)cc1; 1.01
O=c1c(O)c(-c2ccc(O)cc2O)oc2cc(O)cc(O)c12; 0.994
C[C@@H]1O[C@@H](OC[C@H]2OC(Oc3c(-c4ccc(O)c(O)c4)oc4cc(O)cc(O)c4c3=O)[C@H](O)[C@@H](O)[C@@H]2O)[C@H](O)[C@H](O)[C@H]1O (some centres not stated); 0.972
COc1ccc2c(c1)CCC1C2CC[C@@]2(C)C1CC[C@@H]2O (some centres not stated); 0.896

Entry COc1ccc(-c2cc(=O)c3c(O)cc(O[C@@H]4O[C@H](CO[C@H]5O[C@H](C)[C@@H](O)[C@H](O)[C@@H]5O)[C@@H](O)[C@H](O)[C@H]4O)cc3o2)cc1O ; normalized growth = 1.01

Entry CCOCN(C(=O)CCl)c1c(C)cccc1CC ; normalized growth = 0.99

Entry O=c1c(O)c(-c2ccc(O)c(O)c2)oc2cc(O)cc(O)c12 ; normalized growth = 0.98

Entry O=c1cc(-c2ccc(O)cc2)oc2cc(O[C@@H]3O[C@H](CO)[C@@H](O)[C@H](O)[C@H]3O)cc(O)c12 ; normalized growth = 0.986

Entry C[C@]12CCC3c4ccc(O)cc4CCC3C1C[C@@H](O)[C@@H]2O (some centres not stated) ; normalized growth = 1.04

Entry C[C@H]1O[C@H](OC2[C@@H](O)[C@@H](O)C(O)[C@H](O)[C@H]2O)[C@@H](N)C[C@@H]1N=C(N)C(=O)O (some centres not stated) ; normalized growth = 0.959

Entry CCCCCCC(C)OC(=O)COc1ccc(Cl)cc1Cl (configuration not stated) ; normalized growth = 0.983

Entry OCC(O)C(O)C(O)C(O)C(O)CO (configuration not stated) ; normalized growth = 0.988

Entry C[C@@H]1CC[C@@]2(OC1)OC1CC3C4CC=C5C[C@@H](O)CC[C@]5(C)C4CC[C@]3(C)C1[C@@H]2C (some centres not stated) ; normalized growth = 1

====

assay: chemical genetic growth profiling, strain panel (AID 1159580);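 note: tested at 20 µM; growth read once vehicle control cultures reached saturation at 30 °C; 1 = growth at the plate median or of vehicle wells; lower values mean less growth of the strain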; conditions: S. cerevisiae deletion strains, growth OD, locus YLR357W, strain rsc2, hits give low values
Among all 5,500 compounds or so, about 2,000 (36%) were called active. Another 18% or so got no clear call; they are omitted. The list shows a part of the results.
Listed compounds paired with reported normalized growth
Response field accepts a number only; no unit should be typed.

Would you please look over these solved cases?
C=C[C@H]1CN2CC[C@H]1C[C@@H]2[C@@H](OC(=O)OCC)c1ccnc2ccc(OC)cc12; 0.962
COc1cccc2c(C)cc(=O)[nH]c12; 0.974
O=C(OC1Cc2c(O)cc(O)cc2OC1c1cc(=O)c(O)c2c(O)c(O)cc(C3Oc4cc(O)cc(O)c4CC3O)c2c1)c1cc(O)c(O)c(O)c1 (stereo unspecified); 0.744
Oc1ccc2c(c1)OCC1(O)Cc3cc(O)c(O)cc3C21 (stereo unspecified); 1.03
CCOCN(C(=O)CCl)c1c(C)cccc1CC; 0.961

Continue with the next compound.
Entry CCN(Cc1ccncc1)C(=O)C(CO)c1ccccc1 (stereo unspecified) ; normalized growth = 1.04
